Test: n-octanol-water partition coefficient, log P of the compound after 24 hrs by HPLC analysis
Type: physicochemical
QUANTITY: logP at 24 h
Answers are plain numbers.

Reported logP at 24 h, compound O=C1c2cc(O)cc(O)c2[C@@H](c2ccc(O)cc2)[C@@H]1c1cc(O)cc(O)c1 : ____
1.34

###

Biological target: UniProt:P03372
Sequence (P03372 whole entry, the tested form may be a part): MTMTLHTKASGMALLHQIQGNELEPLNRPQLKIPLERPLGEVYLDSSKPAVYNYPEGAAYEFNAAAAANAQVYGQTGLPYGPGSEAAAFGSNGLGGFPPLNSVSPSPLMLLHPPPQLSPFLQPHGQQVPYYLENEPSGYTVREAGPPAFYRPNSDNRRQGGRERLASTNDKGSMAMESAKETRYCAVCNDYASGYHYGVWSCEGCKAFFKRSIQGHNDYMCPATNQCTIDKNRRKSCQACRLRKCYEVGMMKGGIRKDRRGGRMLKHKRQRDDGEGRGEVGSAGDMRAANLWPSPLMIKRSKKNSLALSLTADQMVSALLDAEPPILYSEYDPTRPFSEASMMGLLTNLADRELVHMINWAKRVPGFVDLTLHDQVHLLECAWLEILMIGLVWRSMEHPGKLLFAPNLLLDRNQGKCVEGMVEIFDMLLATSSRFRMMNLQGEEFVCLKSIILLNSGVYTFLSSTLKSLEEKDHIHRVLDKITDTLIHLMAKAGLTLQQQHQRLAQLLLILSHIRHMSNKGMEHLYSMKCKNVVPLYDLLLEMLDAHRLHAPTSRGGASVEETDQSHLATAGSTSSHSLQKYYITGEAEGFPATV
Assay: Antagonist activity at ERalpha (301 to 553 amino acid residues) (unknown origin) assessed as inhibition of E2 induced interaction with SRC1 after 24 hrs by yeast-two-hybrid assay
Parameters: concentration or dose not given beside the values
Label label 1 when Activity is strictly below 0.8%; otherwise label label 0.

Check out these entries, answers already filled in.
Oc1ccc([C@@H]2c3c(O)cc(O)cc3[C@H]3[C@H](c4ccccc4)c4c(O)cc(O)cc4[C@@H]23)cc1: label 1
Oc1cc(O)cc(C2=C(Cc3ccccc3)c3cc(O)cc(O)c3C2c2ccccc2)c1 (configuration not stated): label 1
Oc1ccc([C@@H]2c3c(O)cc(O)cc3[C@H]3[C@H](c4ccc(F)cc4)c4c(O)cc(O)cc4[C@@H]23)cc1: label 1
Oc1ccc([C@@H]2c3c(O)cc(O)cc3[C@H]3[C@H](c4ccc(O)cc4)c4c(O)cc(O)cc4[C@@H]23)cc1: label 0
O=C1c2cc(O)cc(O)c2[C@@H](c2ccc(O)cc2)[C@@H]1c1cc(O)cc(O)c1: label 0

Does Oc1ccc(C2C(c3cc(O)cc(O)c3)=C(Cc3ccccc3)c3cc(O)cc(O)c32)cc1 (configuration not stated) have Activity strictly under 0.8%?
label 0

I wonder whether Cc1ccc([C@@H]2c3c(O)cc(O)cc3[C@H]3[C@H](c4ccc(O)cc4)c4c(O)cc(O)cc4[C@@H]23)cc1 has Activity below 0.8%. Can you tell?
label 1
